Where do these numbers come from? They come from ChEMBL document CHEMBL4665806.

target: Methionine aminopeptidase 2 (Mus musculus, UniProt O08663); experiment: Inhibition of MetAP2 in mouse B cells assessed as reduction in IgG secretion
Sequence (O08663 whole entry): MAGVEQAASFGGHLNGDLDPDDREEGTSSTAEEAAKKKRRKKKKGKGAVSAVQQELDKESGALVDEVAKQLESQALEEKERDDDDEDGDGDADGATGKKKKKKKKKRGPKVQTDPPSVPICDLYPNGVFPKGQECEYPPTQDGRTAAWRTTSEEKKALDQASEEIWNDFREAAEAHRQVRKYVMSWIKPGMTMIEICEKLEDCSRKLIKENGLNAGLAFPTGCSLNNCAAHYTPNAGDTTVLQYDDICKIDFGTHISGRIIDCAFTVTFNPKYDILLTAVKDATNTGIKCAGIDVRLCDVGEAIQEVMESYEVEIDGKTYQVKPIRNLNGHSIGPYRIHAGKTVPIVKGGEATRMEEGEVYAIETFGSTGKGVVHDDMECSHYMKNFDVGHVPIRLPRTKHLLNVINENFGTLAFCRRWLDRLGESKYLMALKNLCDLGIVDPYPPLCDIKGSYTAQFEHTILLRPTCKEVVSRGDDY
propertyName: pIC50
# pIC50: negative log10 of molar concentration; output just the value

Suppose we examine the compound CC(C)Oc1cc(N2CCNCC2)ccc1-c1c(C(N)=O)[nH]c2cc(F)c(F)cc12 ; what pIC50 value has been reported?
7.40

---

assay: Clearance in po dosed mouse; assay type: ADME, organism-based; conditions: in vivo
propertyName: CL/F
Your answer should be a number followed by the unit of measure.

Suppose we examine the molecule CC(C)Oc1cc(N2CCNCC2)ccc1-c1c(C(N)=O)[nH]c2cc(F)c(F)cc12 ; what CL/F value has been reported?
45 mL/min/kg
